- measured-target: NS3 (Hepatitis C virus, UniProt A3EZJ3)
- Sequence (A3EZJ3 whole entry): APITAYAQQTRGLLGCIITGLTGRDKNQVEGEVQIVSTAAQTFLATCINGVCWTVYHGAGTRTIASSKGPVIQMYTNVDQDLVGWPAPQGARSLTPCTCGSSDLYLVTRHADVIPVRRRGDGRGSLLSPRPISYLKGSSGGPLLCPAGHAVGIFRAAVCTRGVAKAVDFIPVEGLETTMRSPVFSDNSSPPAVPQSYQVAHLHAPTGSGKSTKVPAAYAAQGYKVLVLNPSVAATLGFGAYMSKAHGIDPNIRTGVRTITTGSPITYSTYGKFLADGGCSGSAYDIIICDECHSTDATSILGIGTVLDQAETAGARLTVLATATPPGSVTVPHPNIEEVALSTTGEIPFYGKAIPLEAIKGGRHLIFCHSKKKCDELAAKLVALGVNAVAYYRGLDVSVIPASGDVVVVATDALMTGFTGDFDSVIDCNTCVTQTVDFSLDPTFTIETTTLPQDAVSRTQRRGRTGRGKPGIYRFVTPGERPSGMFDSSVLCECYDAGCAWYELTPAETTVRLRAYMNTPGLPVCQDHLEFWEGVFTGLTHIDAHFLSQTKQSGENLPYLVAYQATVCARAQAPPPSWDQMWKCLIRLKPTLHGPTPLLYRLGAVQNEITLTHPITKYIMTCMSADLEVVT
- assay-comment: Inhibitory concentration against hepatitis C virus helicase
- Design: species or system Hepacivirus hominis
quantity-kind: pIC50
Schema: pIC50 number; meaning minus log10 of the concentration expressed in molar units.

Nc1nc(=O)c2c(ncn2C2O[C@H](CO)C(O)C2O)c(=O)[nH]1 (single isomer, unassigned)    4.92

Entry NC(=O)c1ncn([C@@H]2O[C@H](CO[P@@](=O)(O)O[P@](=O)(O)OP(=O)(O)O)[C@@H](O)[C@H]2O)n1 : reported pIC50 = ?
3.74

Entry c1cc(CN2CCC(C3=NC4CCCCC4N3)CC2)ccc1CN1CCC(C2=NC3CCCCC3N2)CC1 (stereo not drawn) : reported pIC50 = ?
5.15

Entry O=C(CCCCC(=O)Nc1ccc(-c2nc3ccccc3[nH]2)cc1)Nc1ccc(-c2nc3ccccc3[nH]2)cc1 : reported pIC50 = ?
6.15

---

pIC50 listing for selected compounds.
- measured-target: Genome polyprotein (Hepatitis C virus genotype 1a (isolate 1) (HCV))
- assay-comment: Inhibitory concentration against hepatitis C virus polymerase
- Design: species or system Hepacivirus hominis
- Sequence (P26664 2421-3011 limits assumed): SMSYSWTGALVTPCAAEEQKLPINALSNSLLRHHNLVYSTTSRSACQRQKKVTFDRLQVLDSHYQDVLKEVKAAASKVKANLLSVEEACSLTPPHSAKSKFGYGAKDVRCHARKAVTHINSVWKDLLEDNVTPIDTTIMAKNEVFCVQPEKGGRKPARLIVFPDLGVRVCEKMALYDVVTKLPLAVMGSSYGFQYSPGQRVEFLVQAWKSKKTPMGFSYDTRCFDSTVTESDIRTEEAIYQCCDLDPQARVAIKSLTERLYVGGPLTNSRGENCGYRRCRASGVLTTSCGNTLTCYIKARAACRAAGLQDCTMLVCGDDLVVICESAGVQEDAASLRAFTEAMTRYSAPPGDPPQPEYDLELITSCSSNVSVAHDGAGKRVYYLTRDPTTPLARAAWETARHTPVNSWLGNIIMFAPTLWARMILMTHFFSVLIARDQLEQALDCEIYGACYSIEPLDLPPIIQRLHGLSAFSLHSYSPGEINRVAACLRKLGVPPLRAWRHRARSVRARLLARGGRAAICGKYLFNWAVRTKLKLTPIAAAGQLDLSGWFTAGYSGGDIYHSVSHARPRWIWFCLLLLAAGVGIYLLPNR
Schema: pIC50 number; meaning minus log10 of the concentration expressed in molar units.

Completed entries (count: 8):
O=C(O)C(=O)CC(=O)c1ccccc1    5.24
N#Cc1c(Cl)cc(Cl)cc1-c1cccc(C(=O)CC(=O)C(=O)O)c1    7.35
N#Cc1c(Cl)cccc1-c1cccc(C(=O)CC(=O)C(=O)O)c1    6.96
O=C(O)c1ccc2c(c1)nc(-c1ccccn1)n2C1CCCCC1    5.37
N#Cc1ccc(Br)cc1-c1cccc(C(=O)CC(=O)C(=O)O)c1    7.00
N#Cc1ccc(Br)cc1Oc1ccccc1C(=O)CC(=O)C(=O)O    6.46
CC(C)CCn1c(=O)c(C2=NS(=O)(=O)c3ccccc3N2)c(O)c2ccccc21    6.10
COc1ccc(CCNC(=O)c2ccc3c(c2)nc(-c2ccccn2)n3C2CCCCC2)cc1OC    4.92

Next compound, please.
Can you look up pIC50 on Genome polyprotein (Hepatitis C virus genotype 1a (isolate 1) (HCV)) for O=C(NCc1ccccc1Cl)Nc1ccsc1-c1nc(O)c(O)c(C(=O)O)n1 ?
7.00

---

IC50 listing for selected substances.
- measured-target: Genome polyprotein (Hepatitis C virus genotype 1a (isolate 1) (HCV))
- assay-comment: Inhibitory concentration against hepatitis C virus NS2/3 protease
- Design: species or system Hepacivirus hominis
- Sequence (P26664 810-1026 limits assumed): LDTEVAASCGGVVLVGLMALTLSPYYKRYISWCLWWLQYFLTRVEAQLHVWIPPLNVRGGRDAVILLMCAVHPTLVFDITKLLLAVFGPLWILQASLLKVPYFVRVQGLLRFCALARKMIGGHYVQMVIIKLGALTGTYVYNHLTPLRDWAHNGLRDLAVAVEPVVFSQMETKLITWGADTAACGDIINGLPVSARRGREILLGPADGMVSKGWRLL
- Sequence (P26664 1027-1657 limits assumed): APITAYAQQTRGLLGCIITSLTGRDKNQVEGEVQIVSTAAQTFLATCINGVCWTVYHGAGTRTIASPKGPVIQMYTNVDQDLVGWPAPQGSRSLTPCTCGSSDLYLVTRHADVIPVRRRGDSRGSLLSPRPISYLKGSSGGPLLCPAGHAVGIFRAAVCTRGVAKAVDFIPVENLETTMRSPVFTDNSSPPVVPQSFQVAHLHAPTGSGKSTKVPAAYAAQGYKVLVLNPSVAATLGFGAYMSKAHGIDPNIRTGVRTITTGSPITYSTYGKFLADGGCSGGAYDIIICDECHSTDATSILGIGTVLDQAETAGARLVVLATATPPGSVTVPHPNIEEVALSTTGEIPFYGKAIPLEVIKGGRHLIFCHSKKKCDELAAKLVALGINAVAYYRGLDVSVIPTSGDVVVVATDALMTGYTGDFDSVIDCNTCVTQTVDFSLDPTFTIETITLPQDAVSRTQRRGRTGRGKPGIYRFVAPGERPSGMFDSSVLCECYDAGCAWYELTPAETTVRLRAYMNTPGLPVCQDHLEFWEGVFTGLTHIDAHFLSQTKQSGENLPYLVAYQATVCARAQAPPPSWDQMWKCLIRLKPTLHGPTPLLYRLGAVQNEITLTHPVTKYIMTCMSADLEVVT
API: value field is a number in µM; no unit string.

Ac-RGGSVVIVGRIILSGRK-OH    3.4

Entry H-KGSVVIVGRIILSGRK-OH : reported IC50 = ?
5.7

---

- measured-target: NS3 (Hepatitis C virus, UniProt A3EZJ3)
- assay-comment: Inhibitory concentration against hepatitis C virus NS3 protease
- Set-up: species or system Hepacivirus hominis
- particulars: read-out: IC50
Non-standard residues stand in square brackets, D forms with d. Residues, ends and D or L forms follow the SMILES beside them. *: point of attachment. Dip = N[C@H](C(=O)O)C(c1ccccc1)c1ccccc1; Hyp = O=C(O)[C@@H]1C[C@@H](O)CN1; Cha = N[C@@H](CC1CCCCC1)C(=O)O; Bn = c1ccc(C*)cc1
pIC50 listing for selected compounds.
Schema: pIC50 number; meaning minus log10 of the concentration expressed in molar units.

Completed entries (count: 5):
CC(=O)N[C@@H](CC(=O)O)C(=O)N[C@@H](CCC(=O)O)C(=O)N[C@@H](CC1CCCCC1)C(=O)N[C@H](C(=O)N1C[C@H](OCc2ccccc2)C[C@H]1C(=O)N[C@@H](CS)C(=O)O)C(C)C (Ac-DE[Cha]V[Hyp](Bn)C-OH)    7.48
O=C(Nc1cc(Cl)ccc1Oc1ccc2ccccc2c1Cl)c1cc(Cl)cc(Br)c1O    5.21
CC[C@H](C)[C@H](NC(=O)[C@@H](NC(=O)[C@H](CCC(=O)O)NC(=O)[C@H](CC(=O)O)NC(C)=O)C(c1ccccc1)c1ccccc1)C(=O)N[C@@H](CC1CCCCC1)C(=O)N[C@@H](CS)C(=O)N1CCC[C@H]1C(=O)N[C@@H](CC1CCCCC1)C(=O)N[C@@H](CC(=O)O)C(=O)N[C@H](C(N)=O)C(C)C (Ac-DE[Dip]I[Cha]CP[Cha]DV-NH2)    5.89
O=C(Nc1ccc(Oc2ccc(Cl)c3ccccc23)c(Cl)c1)c1cc(Cl)ccc1NS(=O)(=O)c1ccc(Cl)cc1    5.19
CCCCCCCCCCCCCNC(=O)c1c(O)cc(O)c([N+](=O)[O-])c1O    5.24

Next compound, please.
Entry CC(C)C[C@H](NC(=O)[C@H](CC(=O)O)NC(=O)[C@H](CC1CCCCC1)NC(=O)[C@@H]1CCCC[C@H]1C(=O)O)C(N)=O : reported pIC50 = ?
4.82

---

- measured-target: NS3 (Hepatitis C virus)
- assay-comment: Inhibitory concentration against hepatitis C virus NS3 protease
- Set-up: species or system Hepacivirus hominis
- particulars: read-out: IC50
quantity-kind: IC50 (µM)
API: value field is a number in µM; no unit string.

Entry Ac-DDIVPC-OH : reported IC50 = ?
71

---

- measured-target: NS3 (Hepatitis C virus)
- assay-comment: Inhibitory concentration against hepatitis C virus NS3 protease
- Design: species or system Hepacivirus hominis
- particulars: read-out: IC50
pIC50: −log10 of the molar value. Non-standard residues stand in square brackets, D forms with d. Residues, ends and D or L forms follow the SMILES beside them. Dip = N[C@H](C(=O)O)C(c1ccccc1)c1ccccc1; Tic = O=C(O)[C@@H]1Cc2ccccc2CN1; Cha = N[C@@H](CC1CCCCC1)C(=O)O; Nle = CCCC[C@H](N)C(=O)O
Given measured pIC50, output MET if it is greater than or equal to 6 and NOT MET if not.

O=C1NC(=S)S/C1=C/c1cc([N+](=O)[O-])ccc1Sc1ccc(Cl)cc1    NOT MET
COc1ccc2c(O[C@@H]3C[C@H]4C(=O)N[C@]5(C(=O)O)C[C@H]5/C=C\CCCCC[C@H](NC(=O)OC5CCCC5)C(=O)N4C3)cc(-c3csc(NC(C)C)n3)nc2c1    NOT MET
C=C[C@H]1C[C@]1(NC(=O)[C@@H]1C[C@@H](Oc2cc(-c3ccccc3)nc3ccccc23)CN1C(=O)[C@@H](NC(=O)[C@@H](NC(C)=O)C1CCCCC1)C(C)C)C(=O)O    MET
CCCC(=O)c1cc2c(c(O)c1C)C(=O)C(=O)c1c(O)cccc1-2    NOT MET
O=C1C=C2C(=CCOC2OC(=O)c2cccc(Br)c2)O1 (stereo not drawn)    NOT MET

Does CC[C@H](C)[C@H](NC(=O)OCc1ccccc1)C(=O)N[C@@H](CC(C)C)C(=O)N[C@@H](CC(F)F)C(=O)C(=O)O have a reported pIC50 of at least 6?
NOT MET

Does CC(=O)OC1OCC=C2OC(=O)C=C21 (stereo not drawn) have a reported pIC50 of at least 6?
NOT MET

Does CCCC[C@H](NC(=O)[C@@H]1Cc2ccccc2CN1C(=O)[C@H](CS)NC(=O)[C@H](CC1CCCCC1)NC(=O)[C@@H](NC(=O)[C@@H](NC(=O)[C@H](CCC(=O)O)NC(=O)[C@H](CC(=O)O)NC(C)=O)C(c1ccccc1)c1ccccc1)[C@@H](C)CC)C(=O)N[C@@H](CO)C(=O)N[C@@H](Cc1ccc(O)cc1)C(N)=O (Ac-DE[Dip]I[Cha]C[Tic][Nle]SY-NH2) have a reported pIC50 of at least 6?
MET

Does O=C1C=C2C(=CCOC2O)O1 (stereo not drawn) have a reported pIC50 of at least 6?
NOT MET

Does CCCC[C@H](NC(=O)[C@@H]1CCCN1C(=O)[C@H](CS)NC(=O)[C@H](CC1CCCCC1)NC(=O)[C@@H](NC(=O)[C@@H](NC(=O)[C@H](CCC(=O)O)NC(=O)[C@H](CC(=O)O)NC(C)=O)C(c1ccccc1)c1ccccc1)[C@@H](C)CC)C(=O)N[C@@H](CC(=O)O)C(=O)N[C@H](C(N)=O)C(C)C (Ac-DE[Dip]I[Cha]CP[Nle]DV-NH2) have a reported pIC50 of at least 6?
NOT MET

Does CC(=O)N[C@@H](CC(=O)O)C(=O)N[C@@H](CCC(=O)O)C(=O)N[C@@H](CC1CCCCC1)C(=O)N[C@H](C(=O)N1C[C@@H](OCc2ccccc2)C[C@H]1C(=O)NC1(C(=O)O)CC1)C(C)C have a reported pIC50 of at least 6?
MET

---

- measured-target: NS3 (Hepatitis C virus, UniProt A3EZJ3)
- assay-comment: Inhibitory concentration against hepatitis C virus helicase
- Set-up: species or system Hepacivirus hominis
quantity-kind: IC50

Completed entries (count: 5):
CC(=O)O[C@H]1C(=O)[C@@]2(C)[C@H]([C@H](OC(=O)c3ccccc3)[C@]3(O)C[C@H](OC(=O)[C@H](O)[C@@H](NC(=O)c4ccccc4)c4ccccc4)C(C)=C1C3(C)C)[C@]1(OC(C)=O)CO[C@@H]1C[C@@H]2O [PACLITAXEL]    > 1000 nM
NC(=O)c1ncn([C@@H]2O[C@H](COP(=O)(O)OP(=O)(O)O)[C@@H](O)[C@H]2O)n1    250000 nM
COc1cccc2c1C(=O)c1c(O)c3c(c(O)c1C2=O)C[C@@](O)(C(=O)CO)C[C@@H]3O[C@H]1C[C@H](N)[C@@H](O)[C@H](C)O1 [EPIRUBICIN]    750 nM
OC[C@H]1O[C@@H](n2nnc3cc(Cl)c(Cl)cc32)[C@H](O)[C@@H]1O    1500 nM
N=c1nc(N)c2ncn([C@H]3O[C@@H](COP(=O)(O)OP(=O)(O)OP(=O)(O)O)[C@H](O)[C@@H]3O)c2c(N)n1    550 nM

Entry O=C1NNC(=O)c2c(ncn2[C@H]2O[C@@H](COP(=O)(O)OP(=O)(O)OP(=O)(O)O)[C@H](O)[C@@H]2O)N1 : reported IC50 = ?
1500 nM

Entry Nc1nc(=O)c2c(ncn2COCCOCc2ccccc2)c(=O)[nH]1 : reported IC50 = ?
5500 nM

Entry Brc1c(Br)c(Br)c2[nH]nnc2c1Br [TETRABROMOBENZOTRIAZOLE] : reported IC50 = ?
20000 nM

Entry COC(=O)[C@@H]1c2cc3c(c(O)c2[C@@H](O[C@@H]2O[C@@H](C)[C@H](OC)[C@@](C)(OC)[C@H]2OC)C[C@]1(C)O)C(=O)c1c(O)cc2c(c1C3=O)O[C@@H]1O[C@@]2(C)[C@H](O)[C@@H](N(C)C)[C@@H]1O [NOGALAMYCIN] : reported IC50 = ?
100 nM
